// reported pIC50 for each item listed
# Tested on: Vero
# assay-protocol: Cytotoxicity against african green monkey Vero cells by CellTiter 96 aqueous nonradioactive cell proliferation assay
# Format: cell-based
# recorded-conditions: Chlorocebus sabaeus
pIC50: −log10 of the molar value.
readout-label: pIC50

> print(dat)
                                   compound  readout.label  meas.value
1  [C-]#[N+][C@@H]1[C@H]2c3c[nH]c4cccc(c34)C(C)(C)[C@H]2C[C@@H](Cl)[C@]1(C)C=C          pIC50        4.59
2  C=C[C@]1(C)CC2C(=O)c3c(NC=O)cccc3C(C)(C)[C@H]2C[C@H]1O (relative stereo)          pIC50      < 4.00
3  [C-]#[N+][C@@H]1[C@H]2c3c([nH]c4ccccc34)C(C)(C)[C@H]2C[C@@H](Cl)[C@@]1(C)C=C          pIC50      > 5.04
